Items are presented alongside their recorded pIC50.
target entity: E-selectin (Homo sapiens)
Sequence (P16581 whole entry): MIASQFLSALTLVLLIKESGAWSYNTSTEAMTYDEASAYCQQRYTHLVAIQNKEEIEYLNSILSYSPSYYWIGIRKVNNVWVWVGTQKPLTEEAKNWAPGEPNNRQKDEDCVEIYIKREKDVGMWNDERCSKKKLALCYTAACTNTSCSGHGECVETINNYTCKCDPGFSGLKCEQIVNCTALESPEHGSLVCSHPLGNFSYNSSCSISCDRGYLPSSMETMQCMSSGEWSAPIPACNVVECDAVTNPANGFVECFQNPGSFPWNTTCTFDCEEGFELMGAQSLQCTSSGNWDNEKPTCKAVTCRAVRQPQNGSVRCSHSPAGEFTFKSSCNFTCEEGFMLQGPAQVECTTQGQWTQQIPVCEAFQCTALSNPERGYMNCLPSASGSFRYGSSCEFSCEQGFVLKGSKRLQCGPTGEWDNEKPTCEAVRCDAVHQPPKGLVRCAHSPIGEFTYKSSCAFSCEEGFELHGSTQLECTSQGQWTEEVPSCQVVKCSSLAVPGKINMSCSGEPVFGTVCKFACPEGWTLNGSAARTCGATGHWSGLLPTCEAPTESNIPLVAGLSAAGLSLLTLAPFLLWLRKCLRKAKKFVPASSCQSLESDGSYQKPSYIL
assay notes: In vitro inhibition of HL60 (human leukemia) cell binding to human recombinant e-selectin.
A value of pIC50 is the negative decimal logarithm of a concentration given in moles per litre.

Before answering, review these 3 worked examples.
Prompt: Look up pIC50: Cc1ccc(O[C@H]2O[C@H](CO)[C@@H](O)[C@@H](O)[C@@H]2O)c(-c2cccc(OCC(=O)O)c2)c1
Completion: 1.85

Prompt: Look up pIC50: O=S(=O)(O)CCc1cccc(-c2ccccc2O[C@H]2O[C@H](CO)[C@@H](O)[C@@H](O)[C@@H]2O)c1
Completion: 1.70

Prompt: Look up pIC50: O=C(NC(Cc1ccccc1)C(=O)O)c1ccc(-c2ccccc2O[C@H]2O[C@H](CO)[C@@H](O)[C@@H](O)[C@@H]2O)cc1 (some centres undefined)
Completion: 1.94

Further cases:
Prompt: Look up pIC50: O=C(O)COCc1cccc(-c2ccccc2O[C@H]2O[C@H](CO)[C@@H](O)[C@@H](O)[C@@H]2O)c1
Completion: 2.02

====

target entity: E-selectin (Homo sapiens, UniProt P16581)
Sequence (P16581 whole entry): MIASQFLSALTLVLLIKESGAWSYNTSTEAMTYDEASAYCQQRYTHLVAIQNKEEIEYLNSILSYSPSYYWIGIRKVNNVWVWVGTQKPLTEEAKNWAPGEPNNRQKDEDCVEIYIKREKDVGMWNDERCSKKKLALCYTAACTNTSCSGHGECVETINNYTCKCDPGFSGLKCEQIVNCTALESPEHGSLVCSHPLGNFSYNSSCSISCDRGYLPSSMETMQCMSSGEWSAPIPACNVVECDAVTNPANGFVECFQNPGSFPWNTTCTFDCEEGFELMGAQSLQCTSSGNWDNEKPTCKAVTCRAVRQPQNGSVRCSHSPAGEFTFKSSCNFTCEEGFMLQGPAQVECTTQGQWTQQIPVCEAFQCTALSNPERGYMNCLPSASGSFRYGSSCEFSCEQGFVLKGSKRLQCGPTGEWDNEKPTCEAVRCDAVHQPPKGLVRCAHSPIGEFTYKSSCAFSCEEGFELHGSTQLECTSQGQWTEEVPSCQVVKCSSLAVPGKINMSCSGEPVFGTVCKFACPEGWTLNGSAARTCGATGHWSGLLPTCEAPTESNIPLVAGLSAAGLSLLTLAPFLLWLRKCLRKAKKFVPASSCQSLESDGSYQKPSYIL
assay notes: In vitro inhibition of HL60 (human leukemia) cell binding to human recombinant e-selectin.
Items are presented alongside their recorded IC50.
Respond numerically; units are mM and should not be typed.

Before answering, review these 2 worked examples.
Prompt: Look up IC50: O=C(O)Cc1cccc(-c2ccccc2O[C@H]2O[C@H](CO)[C@@H](O)[C@@H](O)[C@@H]2O)c1
Completion: 2

Prompt: Look up IC50: Cc1cc(-c2ccccc2O[C@H]2O[C@H](CO)[C@@H](O)[C@@H](O)[C@@H]2O)cc(C)c1OCC(=O)O
Completion: 8

Further cases:
Prompt: Look up IC50: O=C(O)CCC(NC(=O)c1ccc(-c2ccccc2O[C@H]2O[C@H](CO)[C@@H](O)[C@@H](O)[C@@H]2O)cc1)C(=O)O (some centres undefined)
Completion: 32

Prompt: Look up IC50: O=C(O)CNC(=O)c1ccc(-c2ccccc2O[C@H]2O[C@H](CO)[C@@H](O)[C@@H](O)[C@@H]2O)cc1
Completion: 4.6
